# Protocol summary: AUC (0 to infinity) in Sprague-Dawley rat at 2 mg/kg, iv
# Format: ADME, organism-based
# Design: time infinity, dose 2 mg/kg, route intravenous
# Applied conditions: plasma
Reported property: AUC(0-inf)

>  <Entry smiles>
Cc1cccc(C)c1-n1c(=O)c2cnc(Nc3ccc(N4CCN(C)CC4)cc3)nc2n2c3ccccc3nc12

>  <Result value>
1150 ng·h/mL

$$$$

----------
# Test system: T-cell
# Protocol summary: Inhibition of anti-CD3/CD28-induced IL2 production in human T cells
# Type: functional, cell-based
Recorded IC50 determines the label; the label ranges are category 1: < 500 nM; category 2: ≥ 500 nM and < 2000 nM; category 3: ≥ 2000 nM

>  <Entry smiles>
COc1cc(Nc2ncc3c(=O)n(-c4c(C)cccc4C)c4nc5ccccc5n4c3n2)cc(OC)c1OCCN1CCOCC1

>  <Label>
category 1

$$$$
>  <Entry smiles>
Cc1cccc(C)c1-n1c(=O)c2cnc(Nc3ccc(OCCCN(C)C)cc3)nc2n2c3ccccc3nc12

>  <Label>
category 2

$$$$
>  <Entry smiles>
Cc1cccc(C)c1-n1c(=O)c2cnc(Nc3ccc(OCCN4CCN(C)CC4)c(F)c3)nc2n2c3ccccc3nc12

>  <Label>
category 3

$$$$
>  <Entry smiles>
Cc1cccc(C)c1-n1c(=O)c2cnc(Nc3ccc(N4CCN(C)CC4)cc3)nc2n2c3ccccc3nc12

>  <Label>
category 1

$$$$
>  <Entry smiles>
COc1cc(Nc2ncc3c(=O)n(-c4c(C)cccc4C)c4nc5ccccc5n4c3n2)ccc1OCCCN1CCN(C)CC1

>  <Label>
category 2

$$$$
>  <Entry smiles>
COc1cc(Nc2ncc3c(=O)n(-c4c(C)cccc4C)c4nc5ccccc5n4c3n2)ccc1N1CCN(C)CC1

>  <Label>
category 1

$$$$
>  <Entry smiles>
COc1cc(Nc2ncc3c(=O)n(-c4c(C)cccc4C)c4nc5ccccc5n4c3n2)cc(OC)c1OCCN1CCN(C)CC1

>  <Label>
category 2

$$$$
>  <Entry smiles>
COc1cc(Nc2ncc3c(=O)n(-c4c(C)cccc4C)c4nc5ccccc5n4c3n2)ccc1OCCN1CCN(C)CC1

>  <Label>
category 3

$$$$
>  <Entry smiles>
COc1cc(Nc2ncc3c(=O)n(-c4c(C)cccc4C)c4nc5ccccc5n4c3n2)cc(OC)c1OC

>  <Label>
category 2

$$$$
>  <Entry smiles>
Cc1cccc(C)c1-n1c(=O)c2cnc(Nc3ccc(OCCCN4CCCCC4)cc3)nc2n2c3ccccc3nc12

>  <Label>
category 3

$$$$
>  <Entry smiles>
COc1cc(Nc2ncc3c(=O)n(-c4c(C)cccc4C)c4nc5ccccc5n4c3n2)cc(OC)c1OCCCN1CCN(C)CC1

>  <Label>
category 1

$$$$

----------
# Tested target: Tyrosine-protein kinase ITK/TSK (Homo sapiens)
# Sequence (Q08881 whole entry): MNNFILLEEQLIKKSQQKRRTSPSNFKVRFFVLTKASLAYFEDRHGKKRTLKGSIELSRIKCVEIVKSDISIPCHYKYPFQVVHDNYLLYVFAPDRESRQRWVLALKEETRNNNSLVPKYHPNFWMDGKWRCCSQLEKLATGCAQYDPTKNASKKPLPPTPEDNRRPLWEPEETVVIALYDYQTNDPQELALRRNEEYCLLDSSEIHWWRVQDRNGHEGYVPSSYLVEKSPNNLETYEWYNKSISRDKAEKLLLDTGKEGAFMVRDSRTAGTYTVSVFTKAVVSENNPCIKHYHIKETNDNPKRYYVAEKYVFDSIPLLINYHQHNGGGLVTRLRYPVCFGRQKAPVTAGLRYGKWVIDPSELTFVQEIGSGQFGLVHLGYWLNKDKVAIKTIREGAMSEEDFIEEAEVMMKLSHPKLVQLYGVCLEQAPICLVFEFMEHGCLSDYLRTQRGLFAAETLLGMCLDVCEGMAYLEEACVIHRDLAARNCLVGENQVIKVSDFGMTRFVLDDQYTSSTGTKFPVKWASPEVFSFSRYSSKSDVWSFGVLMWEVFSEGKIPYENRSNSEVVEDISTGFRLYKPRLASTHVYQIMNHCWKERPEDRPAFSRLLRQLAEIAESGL
# Protocol summary: Inhibition of Itk by HTRF assay
Reported property: IC50

>  <Entry smiles>
Cc1cccc(C)c1-n1c(=O)c2cnc(Nc3ccc(N4CCN(C)CC4)cc3)nc2n2c3ccccc3nc12

>  <Result value>
> 20 µM

$$$$

----------
# Protocol summary: Oral bioavailability in Sprague-Dawley rat at 5 mg/kg
# Type: ADME, organism-based
# Applied conditions: in vivo
Reported property: bioavailability (%)

>  <Entry smiles>
Cc1cccc(C)c1-n1c(=O)c2cnc(Nc3ccc(N4CCN(C)CC4)cc3)nc2n2c3ccccc3nc12

>  <Result value>
17

$$$$
